- Target or system: BTK enzyme (recombinant full-length BTK, hBTK) (Homo sapiens, UniProt Q06187)
- Construct: recombinant protein from baculovirus-transfected Sf9 cells: full-length BTK, 6HIS-tag cleaved; 6HIS (cleaved yes); made in house; host or cells: baculovirus-transfected Sf9 cells
- Sequence (Q06187 whole entry): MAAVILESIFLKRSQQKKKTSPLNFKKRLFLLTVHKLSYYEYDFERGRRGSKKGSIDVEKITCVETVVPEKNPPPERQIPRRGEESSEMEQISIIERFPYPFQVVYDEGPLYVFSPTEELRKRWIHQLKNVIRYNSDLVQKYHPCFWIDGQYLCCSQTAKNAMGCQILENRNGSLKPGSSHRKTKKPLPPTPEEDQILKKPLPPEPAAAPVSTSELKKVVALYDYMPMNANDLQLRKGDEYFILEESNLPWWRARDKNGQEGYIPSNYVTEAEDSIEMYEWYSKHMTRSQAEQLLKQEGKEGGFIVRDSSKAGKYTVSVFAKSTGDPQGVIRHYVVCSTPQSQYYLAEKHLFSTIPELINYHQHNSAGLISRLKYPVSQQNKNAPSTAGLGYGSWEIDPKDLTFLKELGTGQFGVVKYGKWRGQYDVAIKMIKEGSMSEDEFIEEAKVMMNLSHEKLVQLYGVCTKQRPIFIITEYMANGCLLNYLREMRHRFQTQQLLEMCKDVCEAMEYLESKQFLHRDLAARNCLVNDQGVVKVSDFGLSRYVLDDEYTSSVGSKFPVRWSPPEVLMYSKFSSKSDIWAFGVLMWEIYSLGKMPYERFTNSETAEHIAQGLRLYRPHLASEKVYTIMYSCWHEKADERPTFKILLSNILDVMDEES
- Protocol summary: BTK enzyme activity assay, LANCE TR-FRET
- Format: biochemical
- Assay setup: 50 pM hBTK, 2 μM biotin-A5-peptide, 25 μM ATP; 60 min compound & enzyme incubation; read-out: IC50 BTK activity value
pIC50: −log10 of the molar value.
Recorded measurements of pIC50, one per entry
Recorded endpoint: pIC50

| Line notation | Target or system | Recorded endpoint | Measurement |
| --- | --- | --- | --- |
| CN1CC(=O)N2C[C@@H](c3nc(-c4ccc(C(=O)Nc5cc(C(F)(F)F)ccn5)cc4)c4c(N)nccn34)CC[C@@H]2C1 | BTK enzyme (recombinant full-length BTK, hBTK) (Homo sapiens, UniProt Q06187) | pIC50 | 8.80 |
| CCOc1cc(C(=O)Nc2cc(C(F)(F)F)ccn2)c(F)cc1-c1nc([C@@H]2CC[C@H]3CCC(=O)N3C2)n2ccnc(N)c12 | BTK enzyme (recombinant full-length BTK, hBTK) (Homo sapiens, UniProt Q06187) | pIC50 | 9.12 |
| COc1cc(C(=O)Nc2cc(C(F)(F)F)ccn2)c(Cl)cc1-c1nc([C@@H]2CC[C@H]3CCC(=O)N3C2)n2c(Cl)cnc(N)c12 | BTK enzyme (recombinant full-length BTK, hBTK) (Homo sapiens, UniProt Q06187) | pIC50 | 8.74 |

Where do the numbers come from? From patent US20140206681A1.
